# target_entity: T1, CRBN, Q96SW2;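 also: pooled lentiviral library of zinc finger degron-EGFP fusions in mCherry-positive Jurkat cells, FACS-sorted after compound exposure, with degron abundance counted by next-generation sequencing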
# T1 chain: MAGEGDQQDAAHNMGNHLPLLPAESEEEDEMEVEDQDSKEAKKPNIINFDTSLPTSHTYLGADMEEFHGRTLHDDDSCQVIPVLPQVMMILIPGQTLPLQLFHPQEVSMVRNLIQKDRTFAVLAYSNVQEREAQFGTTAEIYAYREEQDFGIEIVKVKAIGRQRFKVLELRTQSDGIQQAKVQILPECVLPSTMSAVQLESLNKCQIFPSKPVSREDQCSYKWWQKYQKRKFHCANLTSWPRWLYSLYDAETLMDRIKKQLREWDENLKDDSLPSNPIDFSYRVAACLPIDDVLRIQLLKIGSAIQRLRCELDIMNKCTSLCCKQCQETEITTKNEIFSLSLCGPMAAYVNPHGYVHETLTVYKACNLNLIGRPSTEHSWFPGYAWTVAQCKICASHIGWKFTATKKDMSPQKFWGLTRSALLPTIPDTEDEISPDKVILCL
# assay_details: log2 fold change of degron read counts, EGFP-low vs EGFP+ sorted cells (limma voom), compound-induced degradation; higher = more compound-induced degradation of the degron-EGFP fusion; degrons are variants of IKZF1/3 zinc finger 2; compound dose not given here
# assay_setup: Jurkat; 18 h; compound: compound 33 (diphenyl IMiD analogue)
In all, about 8,300 sequences were measured (“log2 fold change of degron read counts, EGFP-low vs EGFP+ sorted cells (limma voom), compound-induced degradation”: median about -1.1, highest 2% from about 3.2 on). The list comes from a sample in which the highest values are over-represented; it also holds close analogues and randomly drawn sequences.
Use 1.0 when the recorded log2 fold change of degron read counts is no lower than 1; use 0.0 when it is lower.

- FFCPVCGAKFTQKGNLLRHIKL [46F_47F_49P_50V_52G_53A_54K_55F_67L_, Q9UKT9]: 0.0
- FKCEICGAGFTQKGNLLRHIKL [46F_47K_49E_50I_52G_53A_54G_55F_67L_, Q9UKT9]: 0.0
- FTCPICGHLFTQKGNLLRHIKL [46F_47T_49P_50I_52G_53H_54L_55F_67L_, Q9UKT9]: 0.0
- FCCEICGAHFTQKGNLLRHIKL [46F_47C_49E_50I_52G_53A_54H_55F_67L_, Q9UKT9]: 1.0
- FECPVCGAKFTQKGNLLRHIKL [46F_47E_49P_50V_52G_53A_54K_55F_67L_, Q9UKT9]: 0.0
- FGCPVCGAKFTQKGNLLRHIKL [46F_47G_49P_50V_52G_53A_54K_55F_67L_, Q9UKT9]: 0.0
- FNCPICGACFTQKGNLLRHIKL [46F_47N_49P_50I_52G_53A_54C_55F_67L_, Q9UKT9]: 1.0
- FECEICGAHFTQKGNLLRHIKL [46F_47E_49E_50I_52G_53A_54H_55F_67L_, Q9UKT9]: 1.0
- FACEICGAHFTQKGNLLRHIKL [46F_47A_49E_50I_52G_53A_54H_55F_67L_, Q9UKT9]: 0.0
- LACPICGFWCTQKGNLLRHIKL [46L_47A_49P_50I_52G_53F_54W_55C_67L_, Q9UKT9]: 1.0
- FMCEICGAHFTQKGNLLRHIKL [46F_47M_49E_50I_52G_53A_54H_55F_67L_, Q9UKT9]: 1.0
- FHCPVCGAKFTQKGNLLRHIKL [46F_47H_49P_50V_52G_53A_54K_55F_67L_, Q9UKT9]: 0.0
